B1: NOTCH4 peptide 1604-1619 (Neurogenic locus notch homolog protein 4), 16-mer library wild type / NSP9 (ORF1ab Nsp9, residues 4141-4253) (parent)
chain 1: TFQGAWLGAPEPWEPL
chain 2: NNELSPVALRQMSCAAGTTQTACTDDNALAYYNTTKGGRFVLALLSDLQDLKWARFPKSDGTGTIYTELEPPCRFVTDTPKGPKVKYLYFIKGLNNLNRGMVLGSLAATVRLQ

- Variants of: B1
- condition_notes: with NSP9 (ORF1ab Nsp9, residues 4141-4253); bait immobilised on MaxiSorp plates (10 µg), library pre-cleared on GST, 2 h binding at 4 °C, five washes; one round per day, days 1-4; value from days 2 and 3; keep out of graded; scale: average fractional NGS count over selection days 2 and 3
measured_endpoint: screen value

| biopolymer_sequence | measured_endpoint | test_result |
| --- | --- | --- |
| chain 1 TFQGAWIGAPEPWEPL | screen value | 0 |
| chain 1 TVQGAWLGAPEPWEPL | screen value | 0 |
| chain 1 TFQGSWLGAPEPWEPL | screen value | 0 |
| chain 1 TFQGLWLGAPEPWEPL | screen value | 5.68e-05 |
| chain 1 TFQGAWLGAPEHWEPL | screen value | 9.54e-05 |
| chain 1 TEQGAWLGAPEPWEPL | screen value | 3.22e-05 |
| chain 1 TFQGAWLGWPEPWEPL | screen value | 4.99e-05 |
| chain 1 TFQGAWLGAPEPWFPL | screen value | 3.92e-05 |
| chain 1 TFQGAWLGAPEPSEPL | screen value | 2.43e-05 |
| chain 1 TFQGAWLGAPERWEPL | screen value | 8.09e-05 |
| chain 1 TFQGKWLGAPEPWEPL | screen value | 0 |
| chain 1 TFQGAWLGAPHPWEPL | screen value | 0 |
| chain 1 TFQGAWLGAAEPWEPL | screen value | 0 |
| chain 1 TFQGAWLGADEPWEPL | screen value | 0 |
| chain 1 TFQGVWLGAPEPWEPL | screen value | 0.000292 |
| chain 1 TFQGAWLGMPEPWEPL | screen value | 0 |
| chain 1 TFQGAWLGAPLPWEPL | screen value | 0 |
| chain 1 TFQGAWLGAPEPMEPL | screen value | 0 |
| chain 1 TFQGAWLGAPEPWQPL | screen value | 0 |
| chain 1 TFQGDWLGAPEPWEPL | screen value | 0 |
| chain 1 TFQGAWLGAPEPTEPL | screen value | 4.47e-05 |
| chain 1 TFQGAWLGAQEPWEPL | screen value | 0 |
| chain 1 TFQGAWLGAPEKWEPL | screen value | 8.35e-05 |
| chain 1 TFQGAWLGAPEPWGPL | screen value | 0 |
| chain 1 TFQGAWLGAPEPWEPT | screen value | 0 |
| chain 1 TFQGAWLGAPEPQEPL | screen value | 0 |
